Overview of reported GI50 across a group of compounds:
test system: SK-MEL-5; test: NCI tumour cell line growth inhibition, 48 h
Active and inactive are the calls of the source. Cut-off read from the data, not from the text of the source: active = GI50 up to about 1.1 µM and inactive = higher.

Compound: CC1(C)C2CCC1(C)[C@H](O)[C@H]2Nc1cc(C(F)(F)F)cc(C(F)(F)F)c1 (stereo not given in full)
Assayed Target: SK-MEL-5
GI50: 5.38 µM (inactive)
//
Compound: CCc1c(Cc2[nH]c(Cc3[nH]c(C=O)c(C)c3CC)c(CC)c2CC)[nH]c(C=O)c1C
Assayed Target: SK-MEL-5
GI50: > 100 µM (inactive)
//
Compound: COc1ccc2c(c1)c(=O)c1ccccc1n2/C=C/C(=O)O
Assayed Target: SK-MEL-5
GI50: > 100 µM (inactive)
//
Compound: CC(C)C1=CC2=C(C(=O)C1=O)C13CCCC(C)(C)C1CC2OC3=O (stereo not given)
Assayed Target: SK-MEL-5
GI50: 25.2 µM (inactive)
//
Compound: c1ccc2[nH]c3[nH]c4[nH]c5ccccc5[nH]c4[nH]c3[nH]c2c1
Assayed Target: SK-MEL-5
GI50: > 100 µM (inactive)
//
Compound: COc1ccc(/C=c2/s/c(=C(\C#N)c3nc4ccccc4[nH]3)n(-c3ccccc3)c2=O)cc1
Assayed Target: SK-MEL-5
GI50: > 92.7 µM (inactive)
//
Compound: Oc1nc(CC(O)c2ccc(Cl)c(Cl)c2)cc(-c2ccccc2)n1 (stereo not given)
Assayed Target: SK-MEL-5
GI50: 37.8 µM (inactive)
//
Compound: CC(=O)C(=[N+]=[N-])C(=O)OCCOC(=O)C(=[N+]=[N-])C(C)=O
Assayed Target: SK-MEL-5
GI50: > 1 µM (active)
//
Compound: COc1ccc(NC(=O)CC(=O)N/N=C/c2ccc(N(CCC#N)S(C)(=O)=O)cc2)cc1
Assayed Target: SK-MEL-5
GI50: > 100 µM (inactive)
//
Compound: Cc1ccc2c(c1C)C(=O)/C(=C/c1ccccc1C(=O)O)C2
Assayed Target: SK-MEL-5
GI50: 42.3 µM (inactive)
//
Compound: COc1ccc(OC)c(NS(=O)(=O)c2ccc3nc(C)n(NS(=O)(=O)c4cc(OC)ccc4OC)c(=O)c3c2)c1
Assayed Target: SK-MEL-5
GI50: 26.4 µM (inactive)
//
Compound: COC(=O)/C=c1\s/c(=C\C(=O)OC)c2ccccc12
Assayed Target: SK-MEL-5
GI50: > 100 µM (inactive)
//
Compound: CN(C)CCC1(C2=CCCC2)CC/C(=C\c2ccccc2)C1=O (stereo not given)
Assayed Target: SK-MEL-5
GI50: 14.7 µM (inactive)
//
Compound: N#Cc1c(-c2ccccc2)c2c([nH]c1=O)-c1cc([N+](=O)[O-])ccc1CCC2
Assayed Target: SK-MEL-5
GI50: 27.9 µM (inactive)
//
Compound: Cc1n[nH]c(=O)n1/N=C\CC/C=N\n1c(C)n[nH]c1=O
Assayed Target: SK-MEL-5
GI50: > 100 µM (inactive)
//
Compound: Nc1nc(Cl)cc(NCC2(CO)CCC(OCc3ccccc3)C2)n1 (stereo not given)
Assayed Target: SK-MEL-5
GI50: 2.82 µM (inactive)
//
Compound: NC(Cc1cc(I)c(O)c(I)c1)C(=O)O (stereo not given)
Assayed Target: SK-MEL-5
GI50: > 500 µM (inactive)
//
Compound: C=C(Cl)C(Br)(CCl)CCC(Br)C(C)(C)Cl (stereo not given)
Assayed Target: SK-MEL-5
GI50: 2.47 µM (inactive)
//
Compound: COc1cc([C@@H]2c3cc4c(cc3[C@@H](Nc3ccc(Cl)cc3C(=O)c3ccccc3Cl)[C@H]3COC(=O)[C@H]23)OCO4)cc(OC)c1OC
Assayed Target: SK-MEL-5
GI50: 0.102 µM (active)
//
Compound: CCCCCC[N+](C)(C)Cc1ccc(C[N+](C)(C)CCCCCC)cc1
Assayed Target: SK-MEL-5
GI50: 6.64 µM (inactive)

* * *

tested on: OVCAR-5; experiment: NCI tumour cell line growth inhibition, 48 h
Activity calls are given as the source filed them. Rule as the data show it: active = GI50 up to about 1.1 µM and inactive = higher.
Outcome codes: active, inactive

Molecule: O=C1NC(=O)C(CC2CCCCCCCCCCC2=O)C(=O)N1 (stereo not given)
Assayed Target: OVCAR-5
Class: inactive
//
Molecule: O=c1cc(NCc2ccncc2)[nH]c(=O)[nH]1
Assayed Target: OVCAR-5
Class: inactive
//
Molecule: Nc1ccc(-c2nn3c(COc4ccc(Cl)cc4)nnc3s2)cc1
Assayed Target: OVCAR-5
Class: inactive
//
Molecule: O=C(O)C1NCCc2c1[nH]c1ccccc21 (stereo not given)
Assayed Target: OVCAR-5
Class: inactive
//
Molecule: CCC1(CC)C(=O)N(C(=O)c2ccc(Cl)cc2)N(C(=O)c2ccccc2Cl)C1=O
Assayed Target: OVCAR-5
Class: inactive
//
Molecule: COc1ccc(NC(=O)C(C#N)=C(SC)SC)cc1
Assayed Target: OVCAR-5
Class: inactive
//
Molecule: Oc1ccc(-c2nc3ccc4ccccc4c3c3c2CCCC3)c(O)c1
Assayed Target: OVCAR-5
Class: inactive
//
Molecule: CC12CCC3C(CCC4=CC(O)CCC43C=O)C1(O)CCC2c1ccc(=O)oc1 (stereo not given)
Assayed Target: OVCAR-5
Class: active
//
Molecule: O=C1NC(=S)N/C1=C\c1cccs1
Assayed Target: OVCAR-5
Class: inactive
//
Molecule: CC1=CCC2CC1C(C(=O)c1c[nH]c3ccccc13)=NC2(C)C (stereo not given)
Assayed Target: OVCAR-5
Class: inactive

* * *

Overview of reported GI50 across a group of compounds:
test system: 786-0; assay: NCI tumour cell line growth inhibition, 48 h
Calls of active or inactive are those of the source. Cut-off read from the data, not from the text of the source: active = GI50 up to about 1.1 µM and inactive = higher.

Compound: COC(=O)CCc1cc(O)c2c(c1)C(C(=O)OC)C(c1ccc(O)c(O)c1)O2 (configuration not stated)
GI50: 26.1 µM (inactive)

Compound: C1CSCCSCCCSCCSCCCSCCSCCCSCCSC1
GI50: > 100 µM (inactive)

Compound: CCN(CC)CCCNc1[nH]c2ccccc2c2nc3ccc(OC)cc3c1-2
GI50: 1.16 µM (inactive)

Compound: COc1ccc2oc(-c3cccnc3)cc(=O)c2c1
GI50: > 100 µM (inactive)

Compound: O=C(c1ccccc1)c1c(-c2ccccc2)[nH]n(-c2ccc([N+](=O)[O-])cc2)c(=O)c1=O
GI50: > 100 µM (inactive)

Compound: COc1nc(N=P(c2ccccc2)(c2ccccc2)c2ccccc2)cc(=O)[nH]1
GI50: > 100 µM (inactive)

Compound: COc1ccc2cc(CNCCCCCCNCc3ccc4cc(OC)ccc4c3)ccc2c1
GI50: 0.902 µM (active)

Compound: CCC(Sc1cc(Cl)c(C)cc1S(=O)(=O)Nc1nc(N)nc(N(C)C)n1)C(=O)O (configuration not stated)
GI50: > 10 µM (inactive)

Compound: COC(=O)C1(F)C(=O)NC(=O)NC1O (configuration not stated)
GI50: > 100 µM (inactive)

Compound: COc1ccc(NC2Oc3cc4c(cc3C(c3cc(OC)c(O)c(OC)c3)C2C)OCO4)cc1 (configuration not stated)
GI50: 3.72 µM (inactive)

Compound: COc1ccc2c(=O)cc(-c3ccncc3)oc2c1OC
GI50: 27.9 µM (inactive)

Compound: NC(=O)c1ccccc1NC(=O)C(=O)Nc1n[nH]c(N)n1
GI50: > 100 µM (inactive)

Compound: COC(=O)C1[C@@H](C(=O)OC)C12C=Cc1ccccc1C=C2 (some centres not stated)
GI50: > 100 µM (inactive)

Compound: CC(=O)N1C2=CCCC2(C)c2ccccc21 (configuration not stated)
GI50: > 100 µM (inactive)

Compound: Clc1ccc(OCc2nnc3sc(SSc4nn5c(COc6ccc(Cl)cc6)nnc5s4)nn23)cc1
GI50: > 100 µM (inactive)

Compound: COc1cccc(/C=C/C(=O)c2sc(C(N)=S)nc2C)c1O
GI50: 34.8 µM (inactive)

Compound: c1ccc2[nH]c3[nH]c4[nH]c5ccccc5[nH]c4[nH]c3[nH]c2c1
GI50: > 100 µM (inactive)

Compound: CC(=O)C1(/N=N/c2ccc(S(N)(=O)=O)cc2)CCOC1=O (configuration not stated)
GI50: > 100 µM (inactive)

Compound: COCCCNC(=O)C1=C(C)NC(C)=C(C(=O)NCCCOC)C1
GI50: > 100 µM (inactive)

Compound: COC(=O)c1c(O)ccc2c1C1(Cc3ccccc3C1=O)C(O)O2 (configuration not stated)
GI50: 14.1 µM (inactive)

Compound: CC1(C)N=C(N)N=C(N)N1c1ccc(CCCCc2ccc(S(=O)(=O)F)cc2Cl)c(Cl)c1
GI50: 0.186 µM (active)

Compound: C/C(=N\N=C(/S)N1CCCCCC1)c1cccc[n+]1[O-]
GI50: 1.53 µM (inactive)

* * *

test system: COLO 205; test: NCI tumour cell line growth inhibition, 48 h
Active and inactive are the calls of the source. No stated cut-off is given here; in the data, active = GI50 up to about 1.1 µM and inactive = higher. Peptide text beside a SMILES is read from it. * marks the point of attachment. Boc = CC(C)(C)OC(=O)*; OBn = c1ccc(CO*)cc1
Outcome codes: Y (active), N (inactive)

Compound: CCOC(=O)C1=COC(C)(C)CC1=O
Class: N

Compound: CC(NC(=O)C(NC(=O)OC(C)(C)C)C(C)C)C(=O)N1CCCC1C(=O)NCC(=O)NC(C(=O)NCC(=O)OCc1ccccc1)C(C)C (stereo not drawn) (Boc-VAPGVG-OBn; configuration not given here)
Class: N

Compound: COc1ccc(/C=c2/s/c(=C(\C#N)c3nc4ccccc4[nH]3)n(-c3ccccc3)c2=O)cc1
Class: N

Compound: CN1CCN(c2nc3c(c(=O)n(C)c(=O)n3C)n2C)CC1
Class: N

Compound: C/C(=N\N=C(/S)N1CCCCCC1)c1cccc[n+]1[O-]
Class: Y

Compound: CC(=O)C1(/N=N/c2ccc(S(N)(=O)=O)cc2)CCOC1=O (stereo not drawn)
Class: N

Compound: Clc1ccc(OCc2nnc3sc(SSc4nn5c(COc6ccc(Cl)cc6)nnc5s4)nn23)cc1
Class: N

Compound: C[C@]12CC[C@H](OC(=O)Cc3ccc(N(CCCl)CCCl)cc3)CC1=CC[C@@H]1[C@@H]2CC[C@]2(C)C(=O)CC[C@@H]12
Class: N
